- target_under_test: PDK-1 (Homo sapiens)
- assay_info: PDK-1 kinase inhibition ELISA assay (phosphorylation of His6-tagged SGK1 S422D by PDK-1)
- Type: biochemical
- recorded_conditions: PDK-1 ELISA, Table 11; read-out: Average IC50
observed_property: IC50 (nM)

I = COc1cc2ncc3c(N)nc(-c4cncc(OC[C@@H](N)CNc5ccc(N)cc5)c4)cc3c2cc1OC
II = COCCOc1cc2ncc3c(N)nc(N4CCC(CCO)CC4)cc3c2cc1OC
Challenge: Given I and II , report the one with the higher recorded IC50. Which one? Tell me its label.
Response given: II
(II: 3720 nM, I: 81 nM)

1 = COc1cc2c(cc1N1CCC(N3CCCC3)CC1)ncc1c(N)nc(-c3cccnc3)cc12
2 = COc1cc2ncc3c(N)nc(-c4cncc(Nc5ccccc5NC(C)=O)c4)cc3c2cc1OC
Challenge: I'm curious whether 1 or 2 has the smaller IC50 number. Which is it? Write the label of whichever entry you select.
Response given: 2

----------
- target_under_test: PDK-1 (Homo sapiens)
- assay_info: PDK-1 kinase inhibition ELISA assay (phosphorylation of His6-tagged SGK1 S422D by PDK-1)
- Assay type: biochemical
- recorded_conditions: PDK-1 ELISA, Table 11; read-out: Average IC50
observed_property: IC50 (nM)

compound="COc1cc2ncc3c(N)nc(-c4cncc(OC[C@@H](N)COc5cc(C(F)(F)F)ccc5F)c4)cc3c2cc1OC [Ib-144]" value_measured=64

a = COc1cc2ncc3c(N)nc(-c4cncc(OC[C@@H](N)Cc5ccc(N)cc5)c4)cc3c2cc1OC [Ib-19]
b = COc1cc2c(cc1OCCCN1CCCC1)ncc1c(N)nc(-c3cccnc3C)cc12 [Ia-9]
c = COc1cc2ncc3c(N)nc(-c4cncc(OC[C@@H](N)Cc5ccc(O)cc5)c4)cc3c2cc1OC [Ib-53]
Challenge: Parameters: sort_field (IC50), sort_dir (desc). Write the labels in rank order as requested.
Response given: b, a, c
(b: 2120 nM, a: 81 nM, c: 17 nM)

----------
- target_under_test: human PKCθ full length enzyme (Homo sapiens)
- Construct: human PKCθ full length enzyme; purchased Panvera, Madison, Wis., now Invitrogen, Carlsbad, Calif; P2996
- Sequence (Q04759 whole entry): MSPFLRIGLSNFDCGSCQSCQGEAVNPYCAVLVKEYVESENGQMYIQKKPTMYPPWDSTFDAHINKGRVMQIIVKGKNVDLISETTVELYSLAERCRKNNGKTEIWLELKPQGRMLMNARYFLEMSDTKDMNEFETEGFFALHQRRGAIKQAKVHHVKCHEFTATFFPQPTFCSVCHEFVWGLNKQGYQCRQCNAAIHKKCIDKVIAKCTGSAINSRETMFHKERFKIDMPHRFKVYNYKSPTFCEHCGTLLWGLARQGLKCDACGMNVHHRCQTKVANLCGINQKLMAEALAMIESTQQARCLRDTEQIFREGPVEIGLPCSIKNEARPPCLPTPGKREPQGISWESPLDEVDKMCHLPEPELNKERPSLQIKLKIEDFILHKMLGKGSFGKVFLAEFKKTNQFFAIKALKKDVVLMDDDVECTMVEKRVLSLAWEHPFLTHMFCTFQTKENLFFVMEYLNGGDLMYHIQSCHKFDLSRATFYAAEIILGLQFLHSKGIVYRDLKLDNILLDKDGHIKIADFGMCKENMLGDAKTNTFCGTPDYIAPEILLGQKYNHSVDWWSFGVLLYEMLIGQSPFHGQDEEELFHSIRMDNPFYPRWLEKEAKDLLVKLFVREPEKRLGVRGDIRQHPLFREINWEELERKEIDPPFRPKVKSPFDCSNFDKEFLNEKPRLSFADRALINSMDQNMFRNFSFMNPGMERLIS
- assay_info: PKCθ kinase inhibition, IMAP fluorescence polarization assay
- Assay type: biochemical
- recorded_conditions: 6 μM ATP
pIC50: −log10 of the molar value.
observed_property: pIC50

compound="COc1cc2ncc3c(N)nc(-c4cncc(O[C@H]5CCNC5)c4)cc3c2cc1OC [Ib-59]" target_under_test="human PKCθ full length enzyme (Homo sapiens)" value_measured=6.23

P = COc1cc2ncc3c(N)nc(-c4cncc(OC[C@@H](N)Cc5ccccc5)c4)cc3c2cc1OC [Ib-62]
Q = COCCOc1cc2ncc3c(N)nc(-c4cncc(OC[C@@H](N)Cc5ccccc5)c4)cc3c2cc1OC [Ia-11]
Challenge: Of P and Q , which one carries the higher reported pIC50? Answer by stating the label of the chosen item.
Response given: Q
(Q: 7.77, P: 7.54)

1 = CCOc1cc2ncc3c(N)nc(-n4ccnc4)cc3c2cc1N [Ia-28]
2 = COc1cc2ncc3c(N)nc(-c4cncc(OC[C@H](N)Cc5ccccc5)c4)cc3c2cc1OC [Ib-56]
Challenge: Which item exceeds the other in pIC50, 1 or 2 ? Lab log: write the label of the selected item as the result.
Response given: 2

----------
- target_under_test: PDK-1 (Homo sapiens, UniProt O15530)
- Sequence (O15530 whole entry): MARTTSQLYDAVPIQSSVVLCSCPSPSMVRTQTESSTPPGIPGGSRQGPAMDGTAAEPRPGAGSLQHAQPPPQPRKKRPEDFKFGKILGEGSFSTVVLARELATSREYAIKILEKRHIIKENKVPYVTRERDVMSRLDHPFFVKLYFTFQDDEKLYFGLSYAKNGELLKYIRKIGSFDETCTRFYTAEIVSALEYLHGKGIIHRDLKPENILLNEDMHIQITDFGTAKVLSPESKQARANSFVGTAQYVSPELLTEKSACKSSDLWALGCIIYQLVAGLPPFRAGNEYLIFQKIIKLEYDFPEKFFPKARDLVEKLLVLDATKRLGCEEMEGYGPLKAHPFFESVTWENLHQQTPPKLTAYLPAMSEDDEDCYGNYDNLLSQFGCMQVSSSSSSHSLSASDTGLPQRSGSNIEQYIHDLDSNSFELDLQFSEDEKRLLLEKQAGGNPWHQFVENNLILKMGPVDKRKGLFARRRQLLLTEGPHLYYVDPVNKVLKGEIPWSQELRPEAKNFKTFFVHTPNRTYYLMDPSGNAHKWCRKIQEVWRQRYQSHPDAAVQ
- assay_info: PDK-1 kinase inhibition ELISA assay (phosphorylation of His6-tagged SGK1 S422D by PDK-1)
- Format: biochemical
- recorded_conditions: PDK-1 ELISA, Table 11; read-out: Average IC50
pIC50: −log10 of the molar value.
observed_property: pIC50

compound="COc1cc2ncc3c(N)nc(-c4cncc(OC[C@@H](N)COc5ccc(C(F)(F)F)cn5)c4)cc3c2cc1OC [Ib-145]" value_measured=8.40
compound="COc1cc2ncc3c(N)nc(-c4cc(F)cc(CCCN)c4)cc3c2cc1OC [Ib-250]" value_measured=7.47

A = COc1cc2ncc3c(N)nc(-c4cncc(OC[C@@H](N)CN(C)Cc5cccnc5)c4)cc3c2cc1OC [Ib-6]
B = COc1cc2ncc3c(N)nc(-c4cncc(OC[C@@H](N)Cc5ccccc5Cl)c4)cc3c2cc1OC [Ib-52]
Challenge: Quick one: lower pIC50, A or B ? Your answer should be the label attached to the chosen record.
Response given: B
(B: 8.10, A: 8.40)

I = COc1cc2ncc3c(N)nc(-c4cccc(C(=O)N5CCN(c6ccccn6)CC5)c4)cc3c2cc1OC [Ib-247]
II = COc1cc2ncc3c(N)nc(-c4cncc(C(=N)NC(C)C)c4)cc3c2cc1OC [Ib-269]
III = COc1cc2ncc3c(N)nc(-c4cncc(OC[C@@H](N)COc5ccc(CCC#N)cc5)c4)cc3c2cc1OC [Ib-158]
IV = COc1cc2ncc3c(N)nc(-c4cncc(Nc5ccc(CCO)cc5)c4)cc3c2cc1OC [Ib-198]
V = COc1cc2ncc3c(N)nc(N4CC[C@H](O)C4)cc3c2cc1OC [Ib-68]
Challenge: List the 5 entries from lowest pIC50 to highest pIC50 value. Answer format: the labels, in the requested order.
Response given: V, I, II, IV, III
(V: 5.38, I: 6.00, II: 6.22, IV: 7.04, III: 7.26)

I = COc1cc2ncc3c(N)nc(-c4cncc(Nc5ccccc5N5CCOCC5)c4)cc3c2cc1OC [Ib-184b]
II = COc1cc2ncc3c(N)nc(-c4cccc(C(=O)O)c4)cc3c2cc1OC [Ib-76]
Challenge: Pick the one with the larger pIC50: I vs II Field: selected label. Fill in the label of the entry you choose.
Response given: I

----------
pIC50: −log10 of the molar value.
// each record: one item and its pIC50 for Akt1 (Homo sapiens)
observed_property: pIC50

Would you please look over these solved cases?
compound="COc1cc2ncc3c(N)nc(-n4ccnc4)cc3c2cc1OC [Ib-74]" observed_property=pIC50 value_measured=6.74
compound="COc1cc2ncc3c(N)nc(-c4cncc(OC[C@H](N)Cc5ccc(F)cc5)c4)cc3c2cc1OC [Ib-47]" observed_property=pIC50 value_measured=7.92
compound="COc1cc2c(cc1N1CCC(N3CCCC3)CC1)ncc1c(N)nc(-c3cccnc3)cc12 [Ia-20]" observed_property=pIC50 value_measured=6.52
compound="COc1cc2ncc3c(N)nc(-c4cncc(O)c4)cc3c2cc1OC [Ib-57]" observed_property=pIC50 value_measured=6.52

A = COc1cc2ncc3c(N)nc(-c4cncc(OC[C@H](N)Cc5ccccc5)c4)cc3c2cc1OC [Ib-56]
B = COc1cc2ncc3c(N)nc(-c4cncc(OC[C@@H](N)Cc5ccccc5Cl)c4)cc3c2cc1OC [Ib-52]
C = COc1cc2c(cc1O)ncc1c(N)nc(-n3ccnc3)cc12 [Ia-33]
D = CCOc1cc2ncc3c(N)nc(-n4ccnc4)cc3c2cc1N [Ia-28]
E = COCCOc1cc2ncc3c(N)nc(-n4cnc(-c5ccccc5)c4)cc3c2cc1OC [Ia-41]
Challenge: Rank order required: pIC50, descending. In plain terms: list the labels in the order you were asked to.
Response given: A, B, D, C, E
(A: 8.52, B: 8.19, D: 6.44, C: 5.70, E: 4.74)

----------
- target_under_test: PKA (Homo sapiens)
- assay_info: PKA kinase inhibition, Z'-LYTE FRET assay
- Format: biochemical
- recorded_conditions: 100 μM ATP
observed_property: IC50 (nM)

1 = COc1cc2ncc3c(N)nc(-c4cncc(OC[C@H](N)Cc5ccc(F)cc5)c4)cc3c2cc1OC [Ib-47]
2 = Nc1nc(-c2cncc(OC[C@@H](N)Cc3ccccc3)c2)cc2c1cnc1ccccc12 [Ia-3]
3 = COc1cc2ncc3c(N)nc(-c4cncc(O[C@@H]5CCNC5)c4)cc3c2cc1OC [Ib-58]
4 = COc1cc2ncc3c(N)nc(-c4cncc(O[C@@H]5CCCNC5)c4)cc3c2cc1OC [Ib-33]
Challenge: Using measured IC50, arrange the molecules from above in descending sequence. Please list the labels according to the requested order.
Response given: 3, 2, 4, 1

----------
- target_under_test: PDK-1 (Homo sapiens)
- assay_info: PDK-1 kinase inhibition ELISA assay (phosphorylation of His6-tagged SGK1 S422D by PDK-1)
- Type: biochemical
- recorded_conditions: PDK-1 ELISA, Table 11; read-out: Average IC50
observed_property: IC50 (nM)

entry_smiles=COc1cc2ncc3c(N)nc(-c4cncc(OC[C@@H](N)CN5CCOCC5)c4)cc3c2cc1OC value_measured=25

a = CCOC1(OCC)CCN(C[C@H](N)COc2cncc(-c3cc4c(cnc5cc(OC)c(OC)cc54)c(N)n3)c2)CC1
b = COc1cc2ncc3c(N)nc(N4CC[C@@H](N(C)C)C4)cc3c2cc1OC
c = CCN1CCN(CCC#Cc2ccc3c(c2)ncc2c(N)nc(-n4ccnc4)cc23)CC1
Challenge: Give the ascending ranking of the items by reported IC50. Response field: labels, in requested order.
Response given: a, c, b
(a: 26 nM, c: 493 nM, b: 4970 nM)
